Method Summary: recombinant UMI read abundance after kanamycin selection (control-corrected) (log10(CPM+1)); higher = more efficient recombination; extreme values may be limits of the assay; sequences stand for … in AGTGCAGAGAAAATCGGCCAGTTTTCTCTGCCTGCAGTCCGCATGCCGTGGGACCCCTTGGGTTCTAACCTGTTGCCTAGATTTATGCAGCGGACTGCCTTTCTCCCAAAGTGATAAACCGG…AGGTTGGTTTCACT; site = the 11-nt donor;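 further: IS621 bridge recombinase in Escherichia coli cells against a fixed T5 target plasmid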
Assign True to entries whose recombinant UMI read abundance (log10) meets or exceeds 0.01; assign False to the rest.

>  <Entry Sequence>
CTCCTGTCATGGACCGGTTTTCCCGGTAATCCGTATTTGAC (site CTCCTGTCTGT)

>  <Group>
False

$$$$
>  <Entry Sequence>
AGAAGGCCATGGACCGGTTTTCCCGGTAATCCGTATTTGAC (site AAAAGGCCTGT)

>  <Group>
False

$$$$
>  <Entry Sequence>
CATTCGCCATGGACCGGTTTTCCCGGTAATCCGTATTTGAA (site CATTCGCCTTT)

>  <Group>
True

$$$$

INPUT: Say whether CCCCGTACATGGACCGGTTTTCCCGGTAATCCGTATTTGCT (site CGCCGTACTAG) shows recombinant UMI read abundance (log10) of 0.01 or more.
OUTPUT: False

INPUT: Hi, just wondering whether GGCCCCCCATGGACCGGTTTTCCCGGTAATCCGTATTTGTT (site GGCCTCCCTAA) shows recombinant UMI read abundance (log10) of 0.01 or higher.
OUTPUT: True

INPUT: Is reported recombinant UMI read abundance (log10) greater than or equal to 0.01 here: GTTCGATCATGGACCGGTTTTCCCGGTAATCCGTATTTGCC (site GTTCGATCTGG)
OUTPUT: True

INPUT: hey, is recombinant UMI read abundance (log10) for this one >= 0.01? GACAAACCATGGACCGGTTTTCCCGGTAATCCGTATTTGGT (site GACAAAACTAC)
OUTPUT: False

INPUT: Can GATGAAACATGGACCGGTTTTCCCGGTAATCCGTATTTGCC (site GATGAAACTGG) be said to have recombinant UMI read abundance (log10) at or above 0.01?
OUTPUT: True

INPUT: // inclusive: recombinant UMI read abundance (log10) at least 0.01? input: CACGCCGCATGGACCGGTTTTCCCGGTAATCCGTATTTGGT (site TTAAGTTCTTG)
OUTPUT: False
